Please go through the items and note down their percent activation of platelet aggregation.
- measured-target: Proteinase-activated receptor 1 (Homo sapiens)
- measurement-description: Evaluated for activation of human platelet aggregation (gel-filtered platelets) induced by alpha thrombin at 50 uM
- Type: functional
Where a SMILES comes first, the peptide text is derived from it. [ ]: non-standard residue; d: D form. Cha = N[C@@H](CC1CCCCC1)C(=O)O; 4Abz = Nc1ccc(C(=O)O)cc1

Past entries and their recorded results:
Query: What does the data say about its percent activation of platelet aggregation? Entry: C[C@H](NC(=O)c1n[nH]c(N)n1)C(=O)N[C@@H](CCCN=C(N)N)C(=O)N[C@@H](Cc1ccccc1)C(N)=O
Result: < 20%

Query: What does the data say about its percent activation of platelet aggregation? Entry: N=C(N)NCCC[C@H](NC(=O)[C@H](CC1CCCCC1)NC(=O)c1ccc(N)cc1)C(=O)N[C@@H](Cc1ccccc1)C(N)=O (H-[4Abz][Cha]RF-NH2)
Result: 40%

Query: What does the data say about its percent activation of platelet aggregation? Entry: N=C(N)NCCC[C@H](NC(=O)[C@H](CC1CCCCC1)NC(=O)c1n[nH]c(N)n1)C(=O)N[C@@H](Cc1c[nH]cn1)C(N)=O
Result: < 20%

Query: What does the data say about its percent activation of platelet aggregation? Entry: N=C(N)NCCC[C@H](NC(=O)[C@H](CC1CCCCC1)NC(=O)c1cnc(Cl)c(Cl)c1)C(=O)N[C@@H](Cc1ccccc1)C(N)=O
Result: 32%

Query: What does the data say about its percent activation of platelet aggregation? Entry: N=C(N)NCCC[C@H](NC(=O)[C@H](CC1CCCCC1)NC(=O)c1cccnc1Cl)C(=O)N[C@@H](Cc1ccccc1)C(N)=O
Result: < 20%

Hi! Can you tell me percent activation of platelet aggregation for each of these compounds?
1. N=C(N)NCCC[C@H](NC(=O)[C@H](CC1CCCCC1)NC(=O)c1ccc(-c2ccccc2)cc1)C(=O)N[C@@H](Cc1ccccc1)C(N)=O
2. N=C(N)NCCC[C@H](NC(=O)[C@H](CC1CCCCC1)NC(=O)C1=COc2ccccc2O1)C(=O)N[C@@H](Cc1ccccc1)C(N)=O
3. C[C@H](NC(=O)[C@H](CC1CCCCC1)NC(=O)c1n[nH]c(N)n1)C(=O)N[C@@H](Cc1ccccc1)C(N)=O

Result:
1: 56%; 2: < 20%; 3: < 20%
